Target or system BTK (Homo sapiens); recorded quantity IC50.
MEASURED QUANTITY: IC50 (nM)

Here's what some known entries look like.
| MOLECULE | IC50, nM |
| --- | --- |
| C=CC(=O)N1CC2CC1C(n1nc(-c3ccc(Oc4cccc(C(F)(F)F)c4)cc3)c3c(N)ncnc31)C2 (stereo not drawn) | 3.1 |
| C=CC(=O)N1CC2CC1C(n1nc(-c3ccc(C(=O)Nc4ccccn4)cc3)c3c(N)ncnc31)C2 (stereo not drawn) | 3.5 |

1: C=CC(=O)N1CC2CC1C(n1nc(-c3ccc(C(=O)Nc4ccccc4)cc3F)c3c(N)ncnc31)C2 (stereo not drawn)
2: C=CC(=O)N1CC2CC1C(n1nc(-c3ccc(Sc4ccccc4)cc3)c3c(N)ncnc31)C2 (stereo not drawn)
INPUT: Given 1 and given 2 , which shows the smaller recorded IC50? Selection: enter the item's label.
OUTPUT: 2
(2: 3.3 nM, 1: 5.1 nM)

1: C#CC(=O)N1CC2CC1C(n1nc(-c3ccc(C(=O)Nc4ccccc4)cc3)c3c(N)ncnc31)C2 (stereo not drawn)
2: C=CC(=O)N1CC2CC1C(n1nc(-c3ccc(Oc4ccccc4)cc3)c3c(N)ncnc31)C2 (stereo not drawn)
INPUT: Hi there, can you help? I need to know whether 1 or 2 has lower measured IC50. Identify your pick by its label.
OUTPUT: 2

----------
MEASUREMENT TARGET: ITK (Homo sapiens)
Construct: purchased Promega Corporation
Sequence (Q08881 1-620): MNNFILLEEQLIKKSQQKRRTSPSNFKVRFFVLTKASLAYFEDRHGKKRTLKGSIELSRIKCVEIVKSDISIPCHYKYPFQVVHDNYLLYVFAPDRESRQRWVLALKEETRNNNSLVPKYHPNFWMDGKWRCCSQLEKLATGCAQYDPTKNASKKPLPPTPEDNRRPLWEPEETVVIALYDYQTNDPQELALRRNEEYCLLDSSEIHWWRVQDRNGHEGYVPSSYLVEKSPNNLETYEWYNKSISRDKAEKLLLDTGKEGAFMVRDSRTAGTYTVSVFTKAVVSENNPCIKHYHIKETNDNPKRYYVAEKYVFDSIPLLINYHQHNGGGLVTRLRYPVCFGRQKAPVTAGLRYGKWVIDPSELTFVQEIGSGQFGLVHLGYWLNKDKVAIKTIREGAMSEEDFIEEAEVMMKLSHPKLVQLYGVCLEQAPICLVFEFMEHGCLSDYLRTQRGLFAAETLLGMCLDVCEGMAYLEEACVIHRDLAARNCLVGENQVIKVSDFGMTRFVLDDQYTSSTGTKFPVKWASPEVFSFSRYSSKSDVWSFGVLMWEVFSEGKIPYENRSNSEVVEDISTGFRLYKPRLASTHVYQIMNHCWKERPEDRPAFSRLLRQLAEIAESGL
EXPERIMENT SUMMARY: Inhibitory activity against ITK (ADP-Glo + ITK Kinase enzyme system kit); selectivity BTK vs. ITK
Type: biochemical
ASSAY SETUP: selectivity for the inhibitory activity of BTK vs. ITK, Equation 1
MEASURED QUANTITY: Selectivity (based on IC50)

Reference set, count: 3
| COMPOUND | Selectivity (based on IC50) |
| --- | --- |
| C=CC(=O)N1C[C@@H]2C[C@H]1[C@@H](n1nc(-c3ccc(C(=O)Nc4cc(F)ccn4)cc3)c3c(N)ncnc31)C2 [Ex. 72] | 31.9 |
| C=CC(=O)N1CC2CC1C(n1nc(-c3ccc(C(=O)Nc4cc(C)ccn4)cc3)c3c(N)ncnc31)C2 (stereo not shown) [Ex. 68] | 73.1 |
| C=CC(=O)N1CC2CC1C(n1nc(-c3ccc(Oc4ccccc4)cc3F)c3c(N)ncnc31)C2 (stereo not shown) [Ex. 35] | 60.0 |

I: C=CC(=O)N1C[C@@H]2C[C@@H]1[C@@H](n1nc(-c3ccc(C(=O)Nc4ccccn4)cc3)c3c(N)ncnc31)C2 [Ex. 69]
II: N#CC(=CC1CC1)C(=O)N1C[C@@H]2C[C@@H]1[C@@H](n1nc(-c3ccc(C(=O)Nc4ccccn4)cc3F)c3c(N)ncnc31)C2 [Ex. 82]
INPUT: Between I and II , whose recorded Selectivity (based on IC50) is greater? Mark your answer with the label of the selected entry.
OUTPUT: I
